Experiment: in vitro
Type: in vitro ADME, human
Details: human, Caco-2
experimental-readout: Papp B→A at 150 min, 10 μmol/L (×10⁻⁶ cm/s)
# output: bare number, implied unit ×10⁻⁶ cm/s

Query: # query: Papp B→A at 150 min, 10 μmol/L of entry O=c1cc(-c2ccccc2)oc2c(O)c(O)ccc12 [7,8‐DHF, 7,8‐Dihydroxyflavone]
Reply: 1.91

----------
Assay: Stability (recovery) of 7,8-DHF in Caco-2 cells with or without inhibitors
Details: human, Caco-2, pH 7.4
experimental-readout: recovery at 60 min, 10 μmol/L (%)
# output: bare number, implied unit %

Query: # query: recovery at 60 min, 10 μmol/L of entry O=c1cc(-c2ccccc2)oc2c(O)c(O)ccc12 [7,8‐DHF, 7,8‐Dihydroxyflavone]
Reply: 99.1
